- System: Candida albicans
- method: Antifungal activity against Candida albicans ATCC 90028 assessed as reduction in fungal growth incubated for 48 hrs by CLSI based analysis
- Type: functional
- condition.notes: read-out: MIC100
measured.parameter: MIC

compound_structure_string=C[C@@H](c1ncncc1F)[C@](O)(Cn1cncn1)c1ccc(F)cc1F measured_parameter=MIC result="≤ 0.12 µg/mL"
compound_structure_string=CC1(C)CCC[C@]2(C)[C@H]3CC[C@](C)(CC(=O)O)O[C@]3(C)CC[C@@H]12 measured_parameter=MIC result="> 128 µg/mL"
compound_structure_string=C[C@@H]1[C@H](O)[C@@H](C)/C=C/C=C/C=C/C=C/C=C/C=C/C=C/[C@H](O[C@@H]2O[C@H](C)[C@@H](O)[C@H](N)[C@@H]2O)C[C@@H]2O[C@](O)(C[C@@H](O)C[C@@H](O)[C@H](O)CC[C@@H](O)C[C@@H](O)CC(=O)O[C@H]1C)C[C@H](O)[C@H]2C(=O)O measured_parameter=MIC result="4 µg/mL"

Next item in the queue.
Ask: Which measured MIC belongs to CC1(C)CCC[C@]2(C)[C@H]3CC[C@@](C)(CC(=O)O)O[C@]3(C)CC[C@@H]12 , tested on Candida albicans?
Reply: > 128 µg/mL

----------
The reader will find reported LC50 at 24 h values listed item by item below.
- method: Acute toxicity in zebrafish embryo preincubated with compound for 24 hrs and measured after 24 hrs post fertilization
- Set-up: species or system Danio rerio
- condition.notes: in vivo
Please state the figure in µg/mL; there is no need to write the unit.

compound_structure_string=CC1(C)CCC[C@]2(C)[C@H]3CC[C@](C)(CC(=O)NC(=N)N)O[C@]3(C)CC[C@@H]12 measured_parameter="LC50 at 24 h" readout_number=14

Ask: For the compound CC1(C)CCC[C@]2(C)[C@H]3CC[C@@](C)(CC(=O)NC(=N)N)O[C@]3(C)CC[C@@H]12 , what LC50 at 24 h is on record?
Reply: 93.4

----------
- method: Acute toxicity in zebrafish embryo assessed as mortality rate at 16 microg/ml preincubated with compound for 24 hrs and measured after 24 hrs post fertilization
- Design: species or system Danio rerio
- condition.notes: in vivo, at 16 µg/mL
measured.parameter: mortality at 24 h, 16 microg/ml (%)
Please state the figure in %; there is no need to write the unit.

compound_structure_string=CC1(C)CCC[C@]2(C)[C@H]3CC[C@](C)(CC(=O)NC(=N)N)O[C@]3(C)CC[C@@H]12 readout_number=75

Ask: For the molecule CC1(C)CCC[C@]2(C)[C@H]3CC[C@@](C)(CC(=O)NC(=N)N)O[C@]3(C)CC[C@@H]12 , what mortality at 24 h, 16 microg/ml is on record?
Reply: 10

----------
- method: Acute toxicity in zebrafish embryo assessed as mortality rate at 32 microg/ml preincubated with compound for 24 hrs and measured after 24 hrs post fertilization
- Design: species or system Danio rerio
- condition.notes: in vivo, at 32 µg/mL
measured.parameter: mortality at 24 h, 32 microg/ml (%)
Please state the figure in %; there is no need to write the unit.

compound_structure_string=CC1(C)CCC[C@]2(C)[C@H]3CC[C@@](C)(CC(=O)NC(=N)N)O[C@]3(C)CC[C@@H]12 readout_number=5

Next item in the queue.
Ask: For the molecule CC1(C)CCC[C@]2(C)[C@H]3CC[C@](C)(CC(=O)NC(=N)N)O[C@]3(C)CC[C@@H]12 , what mortality at 24 h, 32 microg/ml is on record?
Reply: 95
